Reference for the values: patent US11447486B2

Consider the following compounds and their measured IC50 readings.
# target: human 5-LOX (Homo sapiens, UniProt P09917)
# Construct: purchased Cayman 60402; host or cells: insect cells (lysate)
# Sequence (P09917 whole entry): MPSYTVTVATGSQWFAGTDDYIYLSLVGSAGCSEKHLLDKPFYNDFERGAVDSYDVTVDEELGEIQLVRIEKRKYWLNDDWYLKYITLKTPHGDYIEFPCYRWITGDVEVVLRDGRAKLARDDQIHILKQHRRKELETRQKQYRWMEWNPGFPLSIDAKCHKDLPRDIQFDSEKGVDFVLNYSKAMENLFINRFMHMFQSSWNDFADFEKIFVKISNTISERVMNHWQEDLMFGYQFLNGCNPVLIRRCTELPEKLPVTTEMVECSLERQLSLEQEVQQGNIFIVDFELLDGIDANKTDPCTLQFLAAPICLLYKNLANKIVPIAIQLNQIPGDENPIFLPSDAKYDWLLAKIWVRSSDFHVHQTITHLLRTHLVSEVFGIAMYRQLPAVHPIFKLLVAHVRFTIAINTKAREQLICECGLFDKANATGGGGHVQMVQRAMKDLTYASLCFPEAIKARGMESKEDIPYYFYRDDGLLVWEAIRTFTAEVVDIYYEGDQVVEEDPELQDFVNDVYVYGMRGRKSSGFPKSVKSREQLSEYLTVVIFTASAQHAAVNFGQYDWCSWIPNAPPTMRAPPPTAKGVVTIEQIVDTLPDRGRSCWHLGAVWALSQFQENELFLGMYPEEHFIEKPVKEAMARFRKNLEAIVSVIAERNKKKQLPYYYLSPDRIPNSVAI
# assay.summary: 5-LOX enzyme activity, fluorescence method (5-HPETE, H2DCFDA)
# Format: biochemical
# measurement.conditions: read-out: 5-LO (IC50)

# compound, IC50
records = [
    ("Cn1c(NCc2ccc(Nc3ncc(Cl)cn3)cc2)nc2ccc(NC3COC3)cc21", "< 1 µM"),
    ("Nc1ccc2[nH]c(NCc3ccc(Oc4ccc(F)cc4)cc3)nc2c1", "< 1 µM"),
    ("Cn1ccc(Nc2ccc3nc(NCc4ccc(Oc5ccc(Cl)cn5)cc4)n(C)c3c2)n1", "< 1 µM"),
    ("Cn1c(NCc2ccc(Oc3ccc(OC(F)(F)F)cc3)cc2)nc2ccc(NC3COC3)cc21", "< 1 µM"),
    ("Cn1c(NCc2ccc(Oc3ncc(Cl)cc3Cl)cc2)nc2ccc(NC3COC3)cc21", "> 10 µM"),
    ("FC1(F)CN(c2ccc3nc(NCc4ccc(Oc5ccc(Cl)cc5)cc4)[nH]c3c2)C1", "1 to 10 µM"),
    ("Cn1c(NCc2ccc(Oc3ncc4cccc(Cl)c4n3)cc2)nc2ccc(NC3COC3)cc21", "< 1 µM"),
    ("Nc1nc2ccc(NC3COC3)cc2n1Cc1ccc(Oc2ccc(Cl)cn2)cc1", "< 1 µM"),
    ("CCn1c(NCc2ccc(Oc3ncc(Cl)cn3)cc2F)nc2ccc(Nc3cc(C)[nH]n3)cc21", "< 1 µM"),
    ("Nc1ccc2nc(NCc3ccc(OCCC(F)(F)F)cc3)[nH]c2c1", "< 1 µM"),
    ("Nc1ccc2nc(NCCO)n(Cc3ccc(Oc4ccc(Cl)cn4)cc3)c2c1", "< 1 µM"),
    ("CN(C)c1nc2ccc(N)cc2n1CCOc1ccc(Cl)cc1", "< 1 µM"),
    ("Cn1c(NCc2ccc(Oc3ncc(Cl)cn3)cc2)nc2ccc(NC(=N)N)cc21", "> 10 µM"),
    ("CC(Nc1ccc2nc(N(C)C)[nH]c2c1)c1ccc(Oc2ccc(Cl)cn2)cc1 (centres unmarked)", "< 1 µM"),
    ("CN(C)c1nc2ccc(NCc3ccc(OCc4ncco4)cc3)cc2[nH]1", "< 1 µM"),
    ("OCC(O)CNc1ccc2nc(NCc3ccc(Oc4ccc(Cl)cc4)cc3)[nH]c2c1 (centres unmarked)", "< 1 µM"),
    ("Cn1c(NCc2ccc(Oc3ccc(F)cn3)cc2)nc2ccc(NC3COC3)cc21", "< 1 µM"),
]
